Where do the numbers come from? From ChEMBL document CHEMBL1821672.

Test: Oral bioavailability in rat at 10 mg/kg
Type: ADME, organism-based
Details: in vivo
The following compounds are listed with their measured bioavailability values.
Record the value in %, omitting the unit from your answer.

[[record]]
entry_smiles = "Cc1ccc(C(=O)NC2CC2)cc1-c1ccc2c(c1)NC(=O)C21CCN(C)CC1"
measured_metric = "bioavailability"
observed_measurement = 35

[[record]]
entry_smiles = "Cc1ccc(C(=O)NC2CC2)cc1-c1ccc2c(c1)NC(=O)C21CCOCC1"
measured_metric = "bioavailability"
observed_measurement = 40


INPUT: Recorded bioavailability of Cc1ccc(C(=O)NC2CC2)cc1-c1cnc2c(c1)NC(=O)C21CCCC1.Cl , please.
OUTPUT: 65
